Values compiled from the CombiSolv-Exp solvation set (Vermeire and Green 2021).

Test: solvent given as SMILES
Details: in CCCCCCCCO
Given measured solvation free energy, 298 K, output t if it is greater than or equal to -7 kcal/mol and f if not.

// below: answered compounds
>>> answer_label("FC(F)=C(F)C(F)(F)F")
"t"
>>> answer_label("CC(Cl)CCl (stereo not given)")
"t"
>>> answer_label("Clc1ccc(Cl)c(-c2cc(Cl)c(Cl)cc2Cl)c1")
"f"
>>> answer_label("O=C1c2ccccc2-c2ccccc21")
"f"
>>> answer_label("ClC=C(Cl)Cl")
"t"
>>> answer_label("O=C(O)c1ccc(O)cc1")
"f"
>>> answer_label("CCCC")
"t"
>>> answer_label("CCC#N")
"t"

Okay, next one:
In: Is it the case that "CCCc1ccccc1" has solvation free energy, 298 K reaching or exceeding -7 kcal/mol?
Out: t
